tested on: Candida albicans; experiment: In-vitro minimum inhibitory concentration against the growth of Candida albicans; type: functional
Field: MIC. Provide a value for each of the molecules that follow.
Note: unit µg/mL is implicit; provide only the numeric part.

Any idea what its MIC is? The molecule is O=C(NNc1ccc([N+](=O)[O-])cc1[N+](=O)[O-])c1[nH]nc2c(O)c3ccccc3c(O)c12
25

Any idea what its MIC is? The molecule is Clc1ccc(COC(Cn2ccnc2)c2ccc(Cl)cc2Cl)c(Cl)c1 (stereo not drawn) [MICONAZOLE]
25

Any idea what its MIC is? The molecule is OC(Cn1cncn1)(Cn1cncn1)c1ccc(F)cc1F [FLUCONAZOLE]
1

Any idea what its MIC is? The molecule is C[C@@H]1[C@H](O)[C@@H](C)/C=C/C=C/C=C/C=C/C=C/C=C/C=C/[C@H](O[C@@H]2O[C@H](C)[C@@H](O)[C@H](N)[C@@H]2O)C[C@@H]2O[C@](O)(C[C@@H](O)C[C@@H](O)[C@H](O)CC[C@@H](O)C[C@@H](O)CC(=O)O[C@H]1C)C[C@H](O)[C@H]2C(=O)O [AMPHOTERICIN B]
0.39

Any idea what its MIC is? The molecule is NNC(=O)c1[nH]nc2c(O)c3ccccc3c(O)c12
25

Any idea what its MIC is? The molecule is CCOC(=O)c1[nH]nc2c(O)c3ccccc3c(O)c12
6.25
